# tgt: BCLXL WT (Homo sapiens (Human))
# Sequence (Q07817 other isoform, or with tags, fused parts or gaps): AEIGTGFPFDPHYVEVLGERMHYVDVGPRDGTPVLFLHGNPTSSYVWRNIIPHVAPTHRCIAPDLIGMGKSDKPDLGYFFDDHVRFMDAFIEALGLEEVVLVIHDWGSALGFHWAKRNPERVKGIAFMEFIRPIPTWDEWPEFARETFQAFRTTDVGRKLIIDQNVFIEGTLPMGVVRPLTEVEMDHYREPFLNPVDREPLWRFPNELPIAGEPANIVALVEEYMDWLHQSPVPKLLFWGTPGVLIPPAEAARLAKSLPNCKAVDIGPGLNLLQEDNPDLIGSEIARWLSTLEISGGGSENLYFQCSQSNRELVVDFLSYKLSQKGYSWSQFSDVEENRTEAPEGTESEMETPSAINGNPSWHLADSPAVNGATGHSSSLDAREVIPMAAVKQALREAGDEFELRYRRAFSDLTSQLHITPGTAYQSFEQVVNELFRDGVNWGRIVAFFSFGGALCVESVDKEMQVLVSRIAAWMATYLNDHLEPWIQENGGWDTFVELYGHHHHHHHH
# method: TR-FRET competitive binding assay, BCLXL WT
# experimental-conditions: ratio Ki BCLxL / Ki BCL2 WT
# Experimental: The relative binding potency of each compound was determined in a competitive binding assay using time resolved-fluorescence resonance energy transfer (TR-FRET). […] The degree of binding or corresponding compound inhibition can be quantified by the TR-FRET signal between the terbium donor and fluorescein acceptor. […] TR-FRET measurements were performed on a Biotek Synergy Neo plate reader. […] The TR-FRET signal was calculated as the emission-ratio at 520 nm over 495 nm. […]
Hi, to clarify the labels: Yes covers TR_FRET EKI BCLxL/WT selectivty ratio from 20 upward, No covers anything below 20.

{"compound": "Cc1c(N(C(=O)c2cc(-c3cc4c(cc3C(=O)N3Cc5ccccc5C[C@H]3CN3C[C@H]5C[C@H]5C3)CN(C(=O)Cc3ccc(OCCN5CCOCC5)cc3F)CC4)n(C)c2C)c2ccc(O)cc2)cc(C#N)n1C", "qualitative-label": "Yes"}
{"compound": "Cc1c(N(C(=O)c2cc(-c3cc4c(cc3C(=O)N3Cc5ccccc5C[C@H]3CN3CCCC[C@@H]3C)CN(C(=O)Cc3ccc(OCCN5CCOCC5)cc3F)CC4)n(C)c2C)c2ccc(O)cc2)cc(C#N)n1C", "qualitative-label": "Yes"}
{"compound": "Cc1c(N(C(=O)c2cc(-c3cc4c(cc3C(=O)N3Cc5ccccc5C[C@H]3CN3CCCCC3)CN(C(=O)Cc3cc(F)c(OCCN5CCOCC5)cc3F)CC4)n(C)c2C)c2ccc(O)cc2)cc(C#N)n1C", "qualitative-label": "Yes"}
{"compound": "Cc1c(N(C(=O)c2cc(-c3cc4c(cc3C(=O)N3Cc5ccccc5C[C@H]3C)CN(C(=O)COc3ccccc3)CC4)n(C)c2C)c2ccc(O)cc2)cc(C#N)n1C", "qualitative-label": "No"}
{"compound": "CCOC[C@@H]1Cc2ccccc2CN1C(=O)c1cc2c(cc1-c1cc(C(=O)N(c3ccc(O)cc3)c3cc(C#N)n(C)c3C)c(C)n1C)CCN(C(=O)Cc1ccc(OCCN3CCOCC3)cc1F)C2", "qualitative-label": "No"}
{"compound": "Cc1c(C(=O)N(c2ccc(O)cc2)c2cnn(C)c2)cc(-c2cc3c(cc2C(=O)N2Cc4ccccc4C[C@H]2C)CN(C(=O)Cc2ccc(OCCC4CCOCC4)cc2)CC3)n1C", "qualitative-label": "Yes"}
{"compound": "Cc1c(N(C(=O)c2cc(-c3cc4c(cc3C(=O)N3Cc5ccccc5C[C@H]3C)CN(C(=O)Cc3ccc(OCCN5CCOC(C)C5)cc3F)CC4)n(C)c2C)c2ccc(O)cc2)cc(C#N)n1C (single isomer, unassigned)", "qualitative-label": "No"}
{"compound": "COCCn1cc(N(C(=O)c2cc(-c3cc4c(cc3C(=O)N3Cc5ccccc5C[C@H]3C)CN(C(=O)Cc3ccc(OCCN5CCOCC5)cc3)CC4)n(C)c2C)c2ccccc2)cn1", "qualitative-label": "Yes"}
{"compound": "Cc1c(N(C(=O)c2cc(-c3cc4c(cc3C(=O)N3Cc5ccccc5C[C@H]3C)CN(C(=O)Cc3ccc(CCN5CCOCC5)cc3)CC4)n(C)c2C)c2ccc(O)cc2)cc(C#N)n1C", "qualitative-label": "No"}
{"compound": "Cc1c(N(C(=O)c2cc(-c3cc4c(cc3C(=O)N3Cc5ccccc5C[C@H]3C)CN(C(=O)Cc3ccc(OCCN5CCOC6(CC6)C5)cc3)CC4)n(C)c2C)c2ccc(O)cc2)cc(C#N)n1C", "qualitative-label": "No"}
{"compound": "Cc1c(N(C(=O)c2cc(-c3cc4c(cc3C(=O)N3Cc5ccccc5C[C@H]3CN3CC[C@@H](F)C3)CN(C(=O)Cc3ccc(OCCN5CCOCC5)cc3F)CC4)n(C)c2C)c2ccc(O)cc2)cc(C#N)n1C", "qualitative-label": "Yes"}
{"compound": "Cc1nn(C)cc1N(C(=O)c1cc(-c2cc3c(cc2C(=O)N2Cc4ccccc4C[C@H]2C)CN(C(=O)Cc2ccc(OCCN(C)C)cc2F)CC3)n(C)c1C)c1ccccc1", "qualitative-label": "Yes"}
{"compound": "Cc1c(N(C(=O)c2cc(-c3cc4c(cc3C(=O)N3Cc5ccccc5C[C@H]3C)CN(C(=O)Cc3ccc(C5CCN(CC(F)F)CC5)cc3F)CC4)n(C)c2C)c2ccc(O)cc2)cc(C#N)n1C", "qualitative-label": "No"}
{"compound": "Cc1c(N(C(=O)c2cc(-c3cc4c(cc3C(=O)N3Cc5ccccc5C[C@H]3CN3CCCCC3)CN(C(=O)Cc3ccc(OCCC5COCCO5)cc3F)CC4)n(C)c2C)c2ccc(O)cc2)cc(C#N)n1C (single isomer, unassigned) [Example 175]", "qualitative-label": "Yes"}
{"compound": "COc1ncc(N(C(=O)c2cc(-c3cc4c(cc3C(=O)N3Cc5ccccc5C[C@H]3CN3CCCCC3)CN(C(=O)Cc3ccc(OCCN5CCOCC5)cc3F)CC4)n(C)c2C)c2ccc(O)cc2)cc1F", "qualitative-label": "Yes"}
{"compound": "Cc1c(N(C(=O)c2cc(-c3cc4c(cc3C(=O)N3Cc5ccccc5C[C@H]3CN3CCCCC3)CN(C(=O)Cc3ccc(OCCN(C)C5CC5)cc3F)CC4)n(C)c2C)c2ccc(O)cc2)cc(C#N)n1C", "qualitative-label": "No"}
{"compound": "Cc1c(N(C(=O)c2cc(-c3cc4c(cc3C(=O)N3Cc5ccccc5C[C@H]3C)CN(C(=O)Cc3ccc(OCCC5CCOCC5)cc3)CC4)n(C)c2C)c2ccc(O)cc2)cc(C#N)n1C", "qualitative-label": "No"}
{"compound": "Cc1c(N(C(=O)c2cc(-c3cc4c(cc3C(=O)N3Cc5ccccc5C[C@H]3C)CN(C(=O)Cc3ccc(Br)cc3F)CC4)n(C)c2C)c2ccc(O)cc2)cc(C#N)n1C", "qualitative-label": "No"}
{"compound": "Cc1c(N(C(=O)c2cc(-c3cc4c(cc3C(=O)N3Cc5ccccc5C[C@H]3CN3CC[C@@H](F)C3)CN(C(=O)Cc3ccc(OCCC5CCOCC5)cc3)CC4)n(C)c2C)c2ccc(O)cc2)cc(C#N)n1C", "qualitative-label": "No"}
